target: wt MeCP2 MBD (Homo sapiens, UniProt P51608 90-181); test: EMSA; EMSA; unlabeled oligo-dA/dT duplex (o2968/o2969) listed as binding trap; buffer, salt, pH and temperature not shown in the material; conditions: protein: recombinant; tags: N-terminal FLAG-MBP-FactorXa-TEV; C-terminal 7xHis; label: 6-FAM 5' strand 1; blunt
Sequence (P51608 90-181): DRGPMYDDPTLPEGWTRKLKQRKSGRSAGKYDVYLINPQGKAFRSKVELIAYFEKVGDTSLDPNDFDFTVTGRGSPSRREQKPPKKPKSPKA
READOUT_TYPE: Kd (nM)
Kindly provide the numeric value in nM only, without the unit symbol.

C/mC oligo-dA/dT (EMSA) (dsDNA, 5mC at C12 of strand 1 (o2967); strand 2 unmodified (o2904)) DNA 1: AAAAAAAAAAACGAAAAAAAAAAA DNA 2: TTTTTTTTTTTCGTTTTTTTTTTT; 43.8

Q: Can you look up the measured Kd of hmC/mC oligo-dA/dT (EMSA) (dsDNA, 5hmC at C12 of strand 1 (o3115); 5mC at C12 of strand 2 (o2909)) DNA 1: AAAAAAAAAAACGAAAAAAAAAAA DNA 2: TTTTTTTTTTTCGTTTTTTTTTTT for me?
Ans: 47.4

Q: Please report the recorded Kd for mC/mC oligo-dA/dT (EMSA) (dsDNA, 5mC at C12 of strand 1 (o2967); 5mC at C12 of strand 2 (o2909)) DNA 1: AAAAAAAAAAACGAAAAAAAAAAA DNA 2: TTTTTTTTTTTCGTTTTTTTTTTT .
Ans: 3.9

Q: What does the data say about its Kd? Entry: hmC/C oligo-dA/dT (EMSA) (dsDNA, 5hmC at C12 of strand 1 (o3115); strand 2 unmodified (o2904)) DNA 1: AAAAAAAAAAACGAAAAAAAAAAA DNA 2: TTTTTTTTTTTCGTTTTTTTTTTT
Ans: 211
